Quick note: these are IC50 numbers for system: UniProt:Q9Y233
Sequence (Q9Y233 whole entry): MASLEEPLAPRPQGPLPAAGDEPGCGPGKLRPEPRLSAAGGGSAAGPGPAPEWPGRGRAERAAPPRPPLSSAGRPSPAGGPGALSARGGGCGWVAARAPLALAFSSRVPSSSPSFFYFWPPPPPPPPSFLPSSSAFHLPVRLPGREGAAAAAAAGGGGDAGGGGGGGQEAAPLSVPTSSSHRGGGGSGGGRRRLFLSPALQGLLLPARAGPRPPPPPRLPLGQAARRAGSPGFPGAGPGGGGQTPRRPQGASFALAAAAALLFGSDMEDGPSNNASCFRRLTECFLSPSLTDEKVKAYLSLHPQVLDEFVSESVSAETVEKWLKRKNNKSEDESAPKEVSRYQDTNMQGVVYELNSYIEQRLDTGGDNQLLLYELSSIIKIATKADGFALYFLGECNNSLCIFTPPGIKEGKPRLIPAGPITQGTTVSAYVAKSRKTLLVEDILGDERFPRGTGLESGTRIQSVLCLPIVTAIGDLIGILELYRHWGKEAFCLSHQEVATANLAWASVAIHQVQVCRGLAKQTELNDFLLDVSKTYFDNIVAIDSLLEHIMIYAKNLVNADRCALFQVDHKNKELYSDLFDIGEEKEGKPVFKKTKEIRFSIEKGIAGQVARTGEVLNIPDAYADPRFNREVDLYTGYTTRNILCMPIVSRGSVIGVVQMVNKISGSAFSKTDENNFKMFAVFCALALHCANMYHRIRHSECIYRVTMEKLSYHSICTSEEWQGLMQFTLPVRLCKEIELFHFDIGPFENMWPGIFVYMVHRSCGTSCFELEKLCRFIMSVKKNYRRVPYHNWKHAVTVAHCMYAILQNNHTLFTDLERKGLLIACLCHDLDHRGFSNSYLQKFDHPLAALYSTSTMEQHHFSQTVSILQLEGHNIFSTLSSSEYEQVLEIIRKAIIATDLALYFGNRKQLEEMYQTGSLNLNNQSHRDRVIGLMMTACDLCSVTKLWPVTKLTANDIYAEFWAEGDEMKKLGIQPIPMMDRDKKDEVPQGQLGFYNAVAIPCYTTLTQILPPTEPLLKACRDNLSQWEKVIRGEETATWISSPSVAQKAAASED
readout.label: IC50 (nM)

[P] CCCc1nc(C)c2c(=O)nc(-c3cc(S(=O)(=O)N4CCN(CC)CC4)ccc3OCC)[nH]n12
[Q] CCN1C(=O)c2c(nc(Br)n2Cc2ccc(O)cc2)N2C[C@@H](Cc3ccccc3)N=C12
Please state the entry with greater IC50 among P and Q . Pick one and reply with its label.
Q
(Q: 2200 nM, P: 790 nM)

----------
- tested.on: cGMP-specific 3',5'-cyclic phosphodiesterase (Homo sapiens)
- test.description: Percentage inhibition of human phosphodiesterase 5 at 100 nM
readout.label: inhibition (%)

1. O=C1c2nc(Cc3ccccc3)n(Cc3ccccc3)c2N2C[C@@H](Cc3ccccc3)N=C2N1C1CC1; 12

[P] CCN1C(=O)c2c(nc(Cc3ccccc3)n2Cc2ccccc2)N2C[C@@H](Cc3ccccc3)N=C12
[Q] CN1C(=O)c2nc(Cc3ccccc3)n(Cc3ccccc3)c2N2C[C@@H](Cc3ccccc3)N=C12
[R] CC[C@@H]1CN2C(=N1)N(CC)C(=O)c1nc(Cc3ccccc3)n(Cc3ccccc3)c12
Please list the entries, largest inhibition first. Provide the labels, sequenced as the question asks.
P, Q, R
(P: 23%, Q: 6%, R: 4%)

----------
- tested.on: Phosphodiesterases; PDE5 & PDE6 (Homo sapiens) (UniProt O76074+Q13956+P18545+P35913+O43924+P16499+P51160)
- test.description: Relative binding to Phosphodiesterase 6 and Phosphodiesterase 5, ratio of IC50
- Format: protein assay
readout.label: Ratio

1) CCN1C(=O)c2nc(Cc3ccccc3)n(Cc3ccc(O)cc3)c2N2C[C@@H](Cc3ccccc3)N=C12; 7.9
2) CCN1C(=O)c2ncn(Cc3ccccc3)c2N2C[C@@H](Cc3ccccc3)N=C12; 5

[I] CCN1C(=O)c2nc(Cc3ccccc3)n(Cc3ccccc3)c2N2C[C@@H](c3ccccc3)N=C12
[II] CCN1C(=O)c2c(nc(Br)n2Cc2ccc(OC)cc2)N2C[C@@H](Cc3ccccc3)N=C12
Please state the entry with greater Ratio among I and II . Pick one and reply with its label.
II

[a] CCN1C(=O)c2[nH]c(Cc3ccccc3)nc2N2C[C@@H](Cc3ccccc3)N=C12
[b] CCN1C(=O)c2c(nc(Cc3ccccc3)n2Cc2ccc(O)cc2)N2C[C@@H](Cc3ccccc3)N=C12
[c] CCN1C(=O)c2c(nc(Cl)n2Cc2ccc(O)cc2)N2C[C@@H](Cc3ccccc3)N=C12
Please produce an ascending ranking of these compounds based on Ratio. Provide the labels, sequenced as the question asks.
a, b, c

[P] CCN1C(=O)c2nc(Br)n(Cc3ccc(O)cc3)c2N2C[C@@H](Cc3ccccc3)N=C12
[Q] CCN1C(=O)c2c(nc(C#Cc3ccccc3)n2Cc2ccccc2)N2C[C@@H](Cc3ccccc3)N=C12
I'm curious, which of these has a smaller Ratio number: P or Q ? Pick one and reply with its label.
Q

----------
- tested.on: Phosphodiesterases; PDE5 & PDE6 (Homo sapiens) (UniProt O76074+Q13956+P18545+P35913+O43924+P16499+P51160)
- test.description: Relative binding to Phosphodiesterase 6 and Phosphodiesterase 5, ratio of IC50
- Format: protein assay
readout.label: Ratio

[P] CCN1C(=O)c2c(nc(Cc3ccccc3)n2Cc2ccc(OC)cc2)N2C[C@@H](Cc3ccccc3)N=C12
[Q] CCN1C(=O)c2nc(Cc3ccccc3)n(Cc3ccccc3)c2N2C[C@@H](Cc3ccccc3)N=C12
[R] CCC[C@@H]1CN2C(=N1)N(CC)C(=O)c1[nH]c(Cc3ccccc3)nc12
[S] CCN1C(=O)c2c(nc(Br)n2Cc2ccc(O)cc2)N2C[C@@H](Cc3ccccc3)N=C12
Put the items in order so that reported Ratio rises from first to last. Provide the labels, sequenced as the question asks.
R, P, Q, S
(R: 0.7, P: 1.8, Q: 5.3, S: 72)

[1] CCC[C@@H]1CN2C(=N1)N(CC)C(=O)c1nc(Cc3ccccc3)n(Cc3ccccc3)c12
[2] CCN1C(=O)c2c(nc(C#Cc3ccccc3)n2Cc2ccc(OC)cc2)N2C[C@@H](Cc3ccccc3)N=C12
I'm curious, which of these has a smaller Ratio number: 1 or 2 ? Pick one and reply with its label.
2

[1] CCN1C(=O)c2nc(C#Cc3ccccc3)n(Cc3ccc(OC)cc3)c2N2C[C@@H](Cc3ccccc3)N=C12
[2] CCN1C(=O)c2nc(CCc3ccccc3)n(Cc3ccccc3)c2N2C[C@@H](Cc3ccccc3)N=C12
Please state the entry with greater Ratio among 1 and 2 . Pick one and reply with its label.
2

----------
pIC50: −log10 of the molar value.
Quick note: these are pIC50 numbers for system: cGMP-specific 3',5'-cyclic phosphodiesterase (Homo sapiens, UniProt O76074)
readout.label: pIC50

1. CCN1C(=O)c2c(nc(I)n2Cc2ccc(O)cc2)N2C[C@@H](Cc3ccccc3)N=C12; 8.48

[P] CCN1C(=O)c2c(nc(Cc3ccccc3)n2Cc2ccc(OC)cc2)N2C[C@@H](Cc3ccccc3)N=C12
[Q] CC(C)N1C(=O)c2[nH]c(Cc3ccccc3)nc2N2C[C@@H](Cc3ccccc3)N=C21
Please state the entry with greater pIC50 among P and Q . Pick one and reply with its label.
Q
(Q: 7.66, P: 6.89)

----------
- tested.on: Dual 3',5'-cyclic-AMP and -GMP phosphodiesterase 11A (Homo sapiens, UniProt Q9HCR9)
- Sequence (Q9HCR9 whole entry): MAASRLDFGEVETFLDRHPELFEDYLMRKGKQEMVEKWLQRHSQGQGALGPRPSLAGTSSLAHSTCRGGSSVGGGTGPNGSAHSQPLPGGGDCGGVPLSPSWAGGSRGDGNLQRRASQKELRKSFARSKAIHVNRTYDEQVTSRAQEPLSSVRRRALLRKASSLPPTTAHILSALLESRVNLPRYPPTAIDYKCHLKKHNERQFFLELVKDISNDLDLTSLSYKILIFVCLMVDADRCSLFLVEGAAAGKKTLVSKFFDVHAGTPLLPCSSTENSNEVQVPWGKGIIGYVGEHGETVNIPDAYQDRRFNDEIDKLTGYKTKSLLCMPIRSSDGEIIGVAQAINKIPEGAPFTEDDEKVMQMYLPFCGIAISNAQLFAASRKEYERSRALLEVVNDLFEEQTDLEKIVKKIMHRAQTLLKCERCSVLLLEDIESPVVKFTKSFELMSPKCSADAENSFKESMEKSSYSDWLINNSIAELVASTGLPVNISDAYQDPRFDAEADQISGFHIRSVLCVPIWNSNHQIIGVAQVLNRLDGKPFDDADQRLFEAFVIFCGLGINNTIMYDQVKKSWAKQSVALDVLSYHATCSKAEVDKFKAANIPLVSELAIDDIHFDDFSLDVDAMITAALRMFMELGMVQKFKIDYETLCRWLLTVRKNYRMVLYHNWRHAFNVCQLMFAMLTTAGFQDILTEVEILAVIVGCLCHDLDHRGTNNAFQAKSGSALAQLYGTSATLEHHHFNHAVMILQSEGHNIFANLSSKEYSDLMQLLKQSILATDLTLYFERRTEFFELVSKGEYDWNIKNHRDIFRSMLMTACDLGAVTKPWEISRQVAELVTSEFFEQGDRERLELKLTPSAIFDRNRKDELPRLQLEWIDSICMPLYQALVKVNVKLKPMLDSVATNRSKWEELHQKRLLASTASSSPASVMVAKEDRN
readout.label: IC50 (nM)
API: value field is a number in nM; no unit string.

Recorded IC50 for CCN1C(=O)c2c(nc(Br)n2Cc2ccc(O)cc2)N2C[C@@H](Cc3ccccc3)N=C12 with Dual 3',5'-cyclic-AMP and -GMP phosphodiesterase 11A (Homo sapiens, UniProt Q9HCR9), please?
540

----------
- tested.on: High affinity cGMP-specific 3',5'-cyclic phosphodiesterase 9A (Homo sapiens, UniProt O76083)
- Sequence (O76083 whole entry): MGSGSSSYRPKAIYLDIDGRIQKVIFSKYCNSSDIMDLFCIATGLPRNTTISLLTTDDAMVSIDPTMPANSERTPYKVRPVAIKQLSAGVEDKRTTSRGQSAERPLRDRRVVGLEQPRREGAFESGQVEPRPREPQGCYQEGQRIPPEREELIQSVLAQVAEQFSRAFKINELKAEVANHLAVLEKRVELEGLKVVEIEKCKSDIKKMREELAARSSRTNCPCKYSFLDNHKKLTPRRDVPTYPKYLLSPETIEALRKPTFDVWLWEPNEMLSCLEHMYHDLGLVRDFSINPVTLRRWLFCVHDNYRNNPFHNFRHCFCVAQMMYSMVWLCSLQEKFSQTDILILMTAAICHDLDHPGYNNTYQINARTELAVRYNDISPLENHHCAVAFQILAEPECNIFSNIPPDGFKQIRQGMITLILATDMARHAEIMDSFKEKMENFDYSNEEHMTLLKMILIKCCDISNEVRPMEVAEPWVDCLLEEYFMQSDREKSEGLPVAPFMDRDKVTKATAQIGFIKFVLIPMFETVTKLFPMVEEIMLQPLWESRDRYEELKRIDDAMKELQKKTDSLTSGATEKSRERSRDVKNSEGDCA
# IC50 per record follows

1. CN1CC(=O)N2[C@H](c3ccc4c(c3)OCO4)c3[nH]c4ccccc4c3C[C@@H]2C1=O; > 10 µM

# query: IC50 of entry CCN1C(=O)c2c(nc(Br)n2Cc2ccc(O)cc2)N2C[C@@H](Cc3ccccc3)N=C12
> 10 µM

----------
- tested.on: Phosphodiesterases; PDE5 & PDE6 (Homo sapiens) (UniProt O76074+Q13956+P18545+P35913+O43924+P16499+P51160)
- test.description: Relative binding to Phosphodiesterase 6 and Phosphodiesterase 5, ratio of IC50
- Format: protein assay
readout.label: Ratio

Example molecules with recorded Ratio:
1) CC(C)N1C(=O)c2[nH]c(Cc3ccccc3)nc2N2C[C@@H](Cc3ccccc3)N=C21; 4
2) CCN1C(=O)c2c(nc(C#Cc3ccccc3)n2Cc2ccc(O)cc2)N2C[C@@H](Cc3ccccc3)N=C12; 19.8

[a] CN1C(=O)c2[nH]c(Cc3ccccc3)nc2N2C[C@@H](Cc3ccccc3)N=C12
[b] CCN1C(=O)c2nc(Br)n(Cc3ccc(OC)cc3)c2N2C[C@@H](Cc3ccccc3)N=C12
I'm curious, which of these has a smaller Ratio number: a or b ? Pick one and reply with its label.
a
(a: 2.3, b: 7.8)

----------
- tested.on: cGMP-specific 3',5'-cyclic phosphodiesterase (Homo sapiens)
readout.label: IC50 (nM)

[1] CCN1C(=O)c2c(nc(C)n2Cc2ccc(O)cc2)N2C[C@@H](Cc3ccccc3)N=C12
[2] CCN1C(=O)c2nc(Br)n(Cc3ccc(OC)cc3)c2N2C[C@@H](Cc3ccccc3)N=C12
[3] CCN1C(=O)c2nc(Br)n(Cc3ccccc3)c2N2C[C@@H](Cc3ccccc3)N=C12
[4] CCN1C(=O)c2nc(Br)n(Cc3ccc(O)cc3)c2N2C[C@@H](Cc3ccccc3)N=C12
[5] CN1C(=O)c2[nH]c(Cc3ccccc3)nc2N2C[C@@H](Cc3ccccc3)N=C12
Put the items in order so that reported IC50 rises from first to last. Provide the labels, sequenced as the question asks.
4, 1, 2, 5, 3

----------
- tested.on: Phosphodiesterase, PDE1/PDE5 (Homo sapiens) (UniProt O76074+P54750+Q01064+Q14123)
- test.description: Relative binding to Phosphodiesterase 1 and Phosphodiesterase 5, ratio of IC50
- Type: protein assay
readout.label: Ratio

Example molecules with recorded Ratio:
1) CN1C(=O)c2[nH]c(Cc3ccccc3)nc2N2C[C@@H](Cc3ccccc3)N=C12; 11
2) CCN1C(=O)c2nc(Cc3ccccc3)n(Cc3ccccc3)c2N2C[C@@H](Cc3ccccc3)N=C12; > 313
3) CCN1C(=O)c2c(nc(Br)n2Cc2ccc(O)cc2)N2C[C@@H](Cc3ccccc3)N=C12; > 4000
4) CCN1C(=O)c2c(nc(Cl)n2Cc2ccc(O)cc2)N2C[C@@H](Cc3ccccc3)N=C12; > 4350
5) CC[C@@H]1CN2C(=N1)N(CC)C(=O)c1[nH]c(Cc3ccccc3)nc12; > 303
6) CCN1C(=O)c2nc(Br)n(Cc3ccc(O)cc3)c2N2C[C@@H](Cc3ccccc3)N=C12; > 1590
7) CCN1C(=O)c2nc(C#Cc3ccccc3)n(Cc3ccc(O)cc3)c2N2C[C@@H](Cc3ccccc3)N=C12; > 1540
8) CCN1C(=O)c2nc(C#Cc3ccccc3)n(Cc3ccccc3)c2N2C[C@@H](Cc3ccccc3)N=C12; > 303

# query: Ratio of entry CCC[C@@H]1CN2C(=N1)N(CC)C(=O)c1[nH]c(Cc3ccccc3)nc12
> 167

# query: Ratio of entry CN1C(=O)c2[nH]c(Cc3ccccc3)nc2N2C1=N[C@@H]1CCC[C@@H]12
1.3

# query: Ratio of entry CCC[C@@H]1CN2C(=N1)N(CC)C(=O)c1nc(Cc3ccccc3)n(Cc3ccccc3)c12
> 286

# query: Ratio of entry CCN1C(=O)c2[nH]c(Cc3ccccc3)nc2N2C1=N[C@@H]1CCC[C@@H]12
342

# query: Ratio of entry CCN1C(=O)c2[nH]c(Cc3ccccc3)nc2N2C[C@@H](C(C)C)N=C12
59

# query: Ratio of entry CCN1C(=O)c2[nH]c(Cc3ccccc3)nc2N2C[C@@H](Cc3ccccc3)N=C12
> 2220
